Where these numbers come from: the supplement of paper PMC7125110

Listed variants paired with reported kcat
B1: glmS ribozyme (parent)
chain: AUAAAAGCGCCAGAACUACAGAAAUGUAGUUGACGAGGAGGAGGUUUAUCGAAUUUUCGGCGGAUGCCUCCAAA

Variants of: B1
Experiment: kcat; higher = faster cleavage; RNA array
Conditions: with glucosamine-6-phosphate
Fewer inactive variants are shown than the library holds.
Property: kcat (s⁻¹)

[
  {
    "Changes": "C16G U46A",
    "Reading": 0.000198
  },
  {
    "Changes": "U31G C58A",
    "Reading": 0.000195
  },
  {
    "Changes": "A53G C70G",
    "Reading": 0.000195
  }
]
